# Test system: MOLM14
# assay comment: cell viability relative to vehicle control; higher = less cytotoxic;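 note: after 48 h exposure read by CellTiter-Glo luminescence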
# protocol conditions: 10 µM; SRSF2 genotype: SRSF2 wt/wt
Mark 1 (yes) for cell viability under 90%, 0 (no) if at or over.

CN(CCNc1ccnc2cc(Cl)ccc12)CCNc1ccnc2cc(Cl)ccc12 :: 1 (yes)
Cc1c(C(=O)NN2CCCCC2)nn(-c2ccc(Cl)cc2Cl)c1-c1ccc(Cl)cc1 :: 1 (yes)
O=C(O)C=CCCCCCCCO :: 0 (no)
O=C(/C=C/c1ccc(O)cc1)OC[C@H]1O[C@@H](Oc2c(-c3ccc(O)cc3)oc3cc(O)cc(O)c3c2=O)[C@H](O)[C@@H](O)[C@@H]1O [Tiliroside] :: 0 (no)
OC[C@H]1NC[C@H](O)[C@@H](O)[C@@H]1O :: 0 (no)

###

# System: MOLM14
# assay comment: cell viability relative to vehicle control; higher = less cytotoxic
# protocol conditions: 10 µM; SRSF2 genotype: SRSF2 P95H/wt
Structures can show the parent of a compound that is named as a salt.
measure name: cell viability (%)

COc1cc(C(=O)N(CCCc2ccccc2)Cc2ccc(CC(=O)O)cc2)cc(OC)c1C :: 101
CC(/C=C/C=C(\C)C(=O)O[C@@H]1O[C@H](CO)[C@@H](O)[C@H](O)[C@H]1O)=C\C=C\C=C(C)\C=C\C=C(/C)C(=O)O[C@@H]1O[C@H](CO[C@@H]2O[C@H](CO)[C@@H](O)[C@H](O)[C@H]2O)[C@@H](O)[C@H](O)[C@H]1O :: 87.5
COc1cc2c(=O)c(-c3ccc(O)cc3)coc2cc1O :: 93.7
CN/C(=N\CCSCc1nc[nH]c1C)NC#N :: 101
O=c1[nH]c2ccccc2n1CCN1CCN(c2cccc(C(F)(F)F)c2)CC1 :: 101
CC(C)Cc1ccc([C@@H](C)C(=O)NS(C)(=O)=O)cc1 [Reparixin (Repertaxin)] :: 95.7
CCCN[C@H]1CCc2nc(N)sc2C1 [Pramipexole dihydrochloride] :: 79.1
CC(=O)Nc1ccccc1 [Acetanilide (Antifebrin)] :: 96.4

###

# System: MARIMO
# assay comment: cell viability relative to vehicle control; higher = less cytotoxic
# protocol conditions: 10 µM; SRSF2 genotype: SRSF2 P95H/wt
measure name: cell viability (%)

CC[C@H]1OC(=O)[C@H](C)[C@@H](O[C@H]2C[C@@](C)(OC)[C@@H](O)[C@H](C)O2)[C@H](C)[C@@H](O[C@@H]2O[C@H](C)C[C@H](N(C)C)[C@H]2O)[C@](C)(O)C[C@@H](C)/C(=N\OCOCCOC)[C@H](C)[C@@H](O)[C@]1(C)O [Roxithromycin (Roxl-150)] :: 103
CCN(CC)CCNC(=O)c1c(C)[nH]c(/C=C2\C(=O)Nc3ccc(-c4csc(-c5ccccc5)n4)cc32)c1C :: 66.4
CCC1(c2c[nH]cn2)Cc2ccccc2C1 [Atipamezole] :: 83.2

###

# System: MOLM14
# assay comment: cell viability relative to vehicle control; higher = less cytotoxic
# protocol conditions: 10 µM; SRSF2 genotype: SRSF2 P95H/wt
Reported values of cell viability for individual entries
measure name: cell viability (%)

CCN(CC)CCCC[C@H](NC(=O)[C@H](CC(C)C)NC(=O)[C@H](C)NC(=O)[C@H](Cc1ccccc1)NC(=O)c1ccc(C(C)(C)C)cc1)C(=O)N[C@@H](CO)C(=O)OC :: 83.2
O=c1cc(-c2ccc(O)c(O)c2O)oc2ccccc12 :: 81.8
Cc1cn([C@H]2C=C[C@@H](CO)O2)c(=O)[nH]c1=O :: 102
CCCC(CCC)C(=O)O [Divalproex sodium] :: 105
C=CC(=O)Nc1cccc(Nc2nc(Nc3ccc(Oc4ccnc(C(=O)NC)c4)cc3)ncc2F)c1 :: 53.1
O=C1CCc2ccc(O)cc2N1 [7-Hydroxy-3,4-dihydrocarbostyril] :: 107
Cc1cc(O)c2c(c1)C(=O)c1cc(O)cc(O)c1C2=O :: 109
CCS(=O)(=O)N1CCN(c2ccc(Nc3ncc(C(N)=O)c(NC4CC4)n3)cc2)CC1 :: 7.8
CC1CCN(CC[C@H]2CCCN2S(=O)(=O)c2cccc(O)c2)CC1 :: 96.5

###

Reported values of cell viability for individual entries
# Tested on: MOLM14
# assay comment: cell viability relative to vehicle control; higher = less cytotoxic
# protocol conditions: 10 µM; SRSF2 genotype: SRSF2 wt/wt
Structures can show the parent of a compound that is named as a salt.
measure name: cell viability (%)

O=c1sn(-c2cccc3ccccc23)c(=O)n1Cc1ccccc1 :: 68.8
COC(=O)CCC(=O)CN [Methyl Aminolevulinate Hydrochloride] :: 97.2
Cc1c[nH]c(C=C2C(=O)Nc3ccccc32)c1CCC(=O)O :: 28
C[C@@H]1CCN(C(=O)CC#N)C[C@@H]1N(C)c1ncnc2[nH]ccc12 :: 104
Cn1c(=O)c2c(ncn2CC(O)CO)n(C)c1=O (stereo not drawn) :: 101
Nc1cccc2c1CN(C1CCC(=O)NC1=O)C2=O (stereo not drawn) [Lenalidomide (CC-5013)] :: 93.5
COC1=C(OC)C(=O)C(CCCCCCCCCCO)=C(C)C1=O :: 88.7
CCn1cc(C(=O)O)c(=O)c2cc(F)c(N3CCN(C)CC3)cc21 [Pefloxacin mesylate] :: 103
Cc1ccc(-c2nn(C(C)(C)C)c3ncnc(N)c23)cc1 :: 85.9
CC(C)OC(=O)CCC/C=C\C[C@@H]1[C@@H](CC[C@@H](O)CCc2ccccc2)[C@H](O)C[C@@H]1O :: 103
COc1ccc(S(=O)(=O)N(C(C)=O)c2ccccc2/C=C/c2cc[n+]([O-])cc2)cc1 :: 3.3
O=c1ccc2ccc(OCCCCN3CCN(c4cccc5sccc45)CC3)cc2[nH]1 :: 23.4
CCN(C(=O)c1c(O)c2c(Cl)cccc2n(C)c1=O)c1ccccc1 :: 93.4
COc1cc2c(Oc3ccc4[nH]c(C)cc4c3F)ncnc2cc1OCCCN1CCCC1 :: 1.47
NC1CC1c1ccc(-c2cccc(O)c2)cc1 (stereo not drawn) :: 99.1
Nc1nonc1C(=Nc1ccc(F)c(Cl)c1)NO :: 100
COc1ccc(-c2cc(=O)c3c(O)cc(OC4OC(CO)C(O)C(O)C4OC4OC(C)C(O)C(O)C4O)cc3o2)cc1O (stereo not drawn) :: 100
CC1(C)CC[C@]2(C(=O)O[C@@H]3O[C@H](CO[C@@H]4O[C@H](CO)[C@@H](O)[C@H](O)[C@H]4O)[C@@H](O)[C@H](O)[C@H]3O)CC[C@]3(C)C(=CC[C@@H]4[C@@]5(C)CC[C@H](O[C@@H]6OC[C@H](O)[C@H](O)[C@H]6O)[C@@](C)(CO)[C@@H]5CC[C@]43C)[C@@H]2C1 :: 108
COc1ccccc1N1CCN(CC(O)COc2cccc3ccccc23)CC1 (stereo not drawn) :: 72.3
O=c1[nH]c(=O)c2[nH]cnc2[nH]1 [2,6-Dihydroxypurine] :: 107
CC1(C)S[C@@H]2[C@H](NC(=O)[C@H](N)c3ccc(O)cc3)C(=O)N2[C@H]1C(=O)O [Amoxicillin sodium (Amox)] :: 103
N#Cc1ccc2[nH]c(O)c(-c3ccc(CN4CCOCC4)cn3)c2c1 :: 93.3
C[C@H]1Oc2cc(cnc2N)-c2c(nn(C)c2C#N)CN(C)C(=O)c2ccc(F)cc21 :: 106
O=C(/C=C/c1cncc(F)c1)c1c(-c2ccccc2)c2cc(Cl)ccc2[nH]c1=O :: 0.04
CC(S)C(=O)NCC(=O)O (stereo not drawn) :: 105
CC(C)(O[C@@H]1O[C@H](CO)[C@@H](O)[C@H](O)[C@H]1O)[C@H]1Cc2cc3ccc(=O)oc3cc2O1 :: 100
CC(C)C[C@H](NP(=O)(O)O[C@@H]1O[C@@H](C)[C@H](O)[C@@H](O)[C@H]1O)C(=O)N[C@@H](Cc1c[nH]c2ccccc12)C(=O)O [Phosphoramidon Disodium Salt] :: 104
O=C1CC(=O)c2c(Cl)c(Cl)c(Cl)c(Cl)c21 :: 93.7
CCCOc1ccc2c(c1)CC[C@@H]1[C@@H]2CC[C@]2(C)[C@@H](OC)CC[C@@H]12 :: 97.2
C[C@@H]1O[C@@H](O[C@H]2[C@H](Oc3cc(O)c4c(c3)O[C@H](c3ccc(O)cc3)CC4=O)O[C@H](CO)[C@@H](O)[C@@H]2O)[C@H](O)[C@H](O)[C@H]1O [Naringin (Naringoside)] :: 109
CC(C)(C)OC(=O)Nc1ccc(-c2cc(C(=O)NCCCCCCC(=O)NO)no2)cc1 :: 0.64
CCn1nc(C2CCN(C(=O)CCO)CC2)nc1-c1cnc(N)c(-c2nnc(C(C)(C)C)o2)n1 :: 50.8
CC(=O)OCCc1ccc(O)c(O)c1 [Hydroxytyrosol Acetate] :: 103

###

Reported values of cell viability for individual entries
# System: MOLM14
# assay comment: cell viability relative to vehicle control; higher = less cytotoxic
# protocol conditions: 10 µM; SRSF2 genotype: SRSF2 wt/wt
Counter-ions that a name gives are not always drawn.
measure name: cell viability (%)

O=c1cc(-c2ccc(OC3OC(CO)C(O)C(O)C3O)cc2)oc2c(C3OC(CO)C(O)C(O)C3O)c(O)cc(O)c12 (configuration not stated) :: 99
O=C(CSc1nc2c(c(=O)n1-c1ccccc1)SCC2)Nc1ccc(-c2ccccc2)cn1 :: 96.8
COCCNc1cc(NC(=O)N2CCCc3cc(CN4CCN(C)CC4=O)c(C=O)nc32)ncc1C#N :: 98.2
CN1C(C(=O)Nc2ccccn2)=C(O)c2sc(Cl)cc2S1(=O)=O :: 87.8
COc1cc(F)c(C(C)C)cc1-c1ccc(C(F)(F)F)cc1CN1C(=O)O[C@H](c2cc(C(F)(F)F)cc(C(F)(F)F)c2)[C@@H]1C :: 99
Cc1cc(C)c(CNC(=O)c2cc(-c3ccc(N4CCN(C)CC4)nc3)cc3c2c(C)cn3C(C)C)c(=O)[nH]1 :: 83.3
CN(C)/N=N/c1[nH]cnc1C(N)=O :: 108
O=C1C[C@@H](c2ccc(O)cc2)Oc2cc(O)cc(O)c21 :: 112
C=C(C)[C@@H]1CC[C@]2(C(=O)O[C@@H]3O[C@H](CO[C@@H]4O[C@H](CO)[C@@H](O[C@@H]5O[C@@H](C)[C@H](O)[C@@H](O)[C@H]5O)[C@H](O)[C@H]4O)[C@@H](O)[C@H](O)[C@H]3O)CC[C@]3(C)[C@H](CC[C@@H]4[C@@]5(C)CC[C@H](O[C@@H]6OC[C@H](O)[C@H](O)[C@H]6O[C@@H]6O[C@@H](C)[C@H](O)[C@@H](O)[C@H]6O)[C@@](C)(CO)[C@@H]5CC[C@]43C)[C@@H]12 [Anemoside B4] :: 97.4
O=C(NOCCO)c1ccc2cncn2c1Nc1ccc(I)cc1F :: 27
CCn1cc(C(=O)O)c(=O)c2cc(F)c(N3CCNCC3)nc21 :: 110
COc1ccc([C@@H]2Sc3ccccc3N(CCN(C)C)C(=O)[C@@H]2OC(C)=O)cc1 [Diltiazem HCl] :: 98.7
O=C(c1cn(Cc2cncn2Cc2ccc(Br)cc2)cc1-c1cccc2ccccc12)N1CCOCC1 :: 39.1
C[C@]12CC[C@@H]3c4ccc(OC(=O)c5ccccc5)cc4CC[C@H]3[C@@H]1CC[C@@H]2O [Estradiol Benzoate] :: 76.1
COc1ccc(NC(=O)c2ccc(C(=N)N(C)C)cc2)c(C(=O)Nc2ccc(Cl)cn2)c1 [Betrixaban] :: 96.2
C=C1CCC[C@]2(C)C[C@@H]3OC(=O)C(C)=C3C[C@@H]12 [Atractylenolide II] :: 106
CCc1c2c(nc3ccc(OC(=O)N4CCC(N5CCCCC5)CC4)cc13)-c1cc3c(c(=O)n1C2)COC(=O)[C@]3(O)CC [Irinotecan HCl Trihydrate (Campto)] :: 4.24
C[C@@H]1CC[C@@]2(OC1)O[C@H]1C[C@H]3[C@@H]4CC=C5C[C@@H](O[C@@H]6O[C@H](CO)[C@@H](O)[C@H](O)[C@H]6O)CC[C@]5(C)[C@H]4CC[C@]3(C)[C@H]1[C@@H]2C :: 93.2
CC(=O)OC(C)C(C)C(=O)OCC12C3CC(C)(C)[C@H](O[C@@H]1C[C@]1(C)C3=CCC3C4(C)CCC(O[C@@H]5O[C@H](C(=O)O)[C@@H](O[C@H]6O[C@H](CO)[C@@H](O)[C@H](O)[C@H]6O)[C@H](O)[C@H]5O[C@@H]5OC[C@@H](O)[C@H](O)[C@H]5O)[C@](C)(CO)C4CCC31C)C2O (some centres not stated) [Sodium Aescinate] :: 92.3
Cc1cc(C#N)cc(C)c1Oc1nc(Nc2ccc(C#N)cc2)nc(N)c1Br :: 102
CCOc1nc2cccc(C(=O)O)c2n1Cc1ccc(-c2ccccc2-c2nnn[nH]2)cc1 :: 93.5
C[C@](N)(Cc1ccc(O)c(O)c1)C(=O)O :: 101
Cc1ccc(OCC(O)C(C)NC(C)C)c2c1CCC2 (configuration not stated) :: 100
CC1(C)CCC2(C(=O)O)CCC3=C(CCC4C3(C)CCC3C4(C)CC(O)C(O)C3(C)C(=O)O)C2C1 (configuration not stated) :: 87.9
CN[C@H]1CC[C@@H](c2ccc(Cl)c(Cl)c2)c2ccccc21 [Sertraline HCl] :: 42.9
O=C(O)CCC(=O)O :: 93.6
COc1nc(N)nc2c1ncn2[C@@H]1O[C@H](CO)[C@@H](O)[C@@H]1O :: 93.5
